target: Histamine H1 receptor (Cavia porcellus) (UniProt P31389); test: Affinity for H1 histamine receptor of guinea pig ileum; format: tissue-based
Sequence (P31389 whole entry): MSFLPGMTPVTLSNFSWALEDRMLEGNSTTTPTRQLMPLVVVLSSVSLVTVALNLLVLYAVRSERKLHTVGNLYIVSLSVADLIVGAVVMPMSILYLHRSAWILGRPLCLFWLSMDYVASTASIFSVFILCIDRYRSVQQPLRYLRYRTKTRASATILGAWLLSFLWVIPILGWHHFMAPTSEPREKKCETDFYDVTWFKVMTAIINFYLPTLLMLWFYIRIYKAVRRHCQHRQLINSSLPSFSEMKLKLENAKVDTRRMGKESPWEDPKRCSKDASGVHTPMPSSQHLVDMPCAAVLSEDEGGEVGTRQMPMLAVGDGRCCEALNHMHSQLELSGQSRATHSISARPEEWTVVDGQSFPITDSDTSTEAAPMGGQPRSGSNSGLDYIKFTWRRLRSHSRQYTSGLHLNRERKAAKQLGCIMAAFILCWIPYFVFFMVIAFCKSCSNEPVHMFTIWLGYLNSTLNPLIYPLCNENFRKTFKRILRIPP
measure name: pKB
One number for each entry.

Please go through the list and note pKB for each compound.
1. Cn1c2c(c3ccccc31)C(=O)C(CN1CCC(C(=O)c3ccc(F)cc3)CC1)CC2 (single isomer, unassigned; (+))
2. Cn1c2c(c3ccccc31)C(=O)C(CN1CCC(c3ccccc3)CC1)CC2 (centres undefined)
3. Cn1c2c(c3ccccc31)C(=O)C(CN1CC=C(c3c[nH]c4ccc(F)cc34)CC1)CC2 (centres undefined)
4. Cn1c2c(c3ccccc31)C(=O)C(CN1CCC(C(=O)c3ccccc3)CC1)CC2 (centres undefined)
5. Cn1c2c(c3ccccc31)C(=O)C(CN1CCN(c3ccccc3F)CC1)CC2 (centres undefined)
6. CN(CCn1c(=O)[nH]c2ccccc2c1=O)CC1CCc2c(c3ccccc3n2C)C1=O (centres undefined)

[6.82, 6.4, 6.6, 6.53, 6.19, 5.9]
